tested on: EJ-1 cells; experiment: EJ-1 cell growth inhibition (direct antitumor action, CellTiterGlo); assay type: cell-based; settings: EJ1, 96 h; EJ-1 (bladder cancer) growth inhibition, 4 days culture
pIC50: −log10 of the molar value.
Lab note: compare pIC50 against 5. Equal or greater, write yes (1). Smaller, write no (0).

Field: example entries. Status: answers known.
COMPOUND: O=P(O)(O)C(CNc1ccc(F)cn1)P(=O)(O)O [Compound 12, reference compound]
SYSTEM TESTED: EJ-1 cells
LABEL CLASS: no (0)

COMPOUND: CC(=O)OCOP(=O)(OCOC(C)=O)C(CNc1ccccn1)P(=O)(OCOC(C)=O)OCOC(C)=O
SYSTEM TESTED: EJ-1 cells
LABEL CLASS: no (0)

COMPOUND: O=P(O)(O)C(CNc1ccc(Br)cn1)P(=O)(O)O [Compound 11, reference compound]
SYSTEM TESTED: EJ-1 cells
LABEL CLASS: no (0)

Evaluate O=P(O)(O)C(CNc1nccs1)P(=O)(O)O [Compound 14, reference compound] : pIC50 at minimum 5? yes (1)

Evaluate O=P(O)(O)C(CNc1ncccc1Br)P(=O)(O)O [Compound 9, reference compound] : pIC50 at minimum 5? no (0)

Evaluate O=P(O)(O)C(CNc1ncccn1)P(=O)(O)O [Compound 13, reference compound] : pIC50 at minimum 5? no (0)

---

Tested on: EJ-1 cells / γδ T cells
Assay: TNF-α production from γδ T cells stimulated by compound-pretreated EJ-1 cells (indirect antitumor action, ELISA)
Format: cell-based
Conditions: EJ-1 pretreated 4 hr with compound, 16 hr with γδ T cells, TNF-α ELISA; read-out: TNF-α50
Experimental: The indirect antitumor action of bisphosphonic acid POM esters and bisphosphonic acids was studied by comparison using EJ-1. In principle, EJ-1 is treated with a compound, washed, and reacted with γδ T cells, and the cytotoxic ability is studied by comparison, by quantifying TNF-α produced by γδ T cells during cell disordering. […] The indirect antitumor action of bisphosphonic acid POM esters and bisphosphonic acids was quantitatively studied by comparison using EJ-1. […]
Catalogue of EC50 readings, one per entry.

Take a look at these entries with their results.
SMILES DATA: CC(C)(C)C(=O)OCOP(=O)(OCOC(=O)C(C)(C)C)C(CNc1cc[nH]n1)P(=O)(OCOC(=O)C(C)(C)C)OCOC(=O)C(C)(C)C
EC50: 4.4 µM
//
SMILES DATA: CCCCCCCCc1cccc(NCC(P(=O)(OCOC(=O)C(C)(C)C)OCOC(=O)C(C)(C)C)P(=O)(OCOC(=O)C(C)(C)C)OCOC(=O)C(C)(C)C)n1
EC50: > 10 µM

Kindly consider the entry below.
Please supply the value of reported EC50 for the item CC(C)(C)C(=O)OCOP(=O)(OCOC(=O)C(C)(C)C)C(CNc1ccnc(Br)c1)P(=O)(OCOC(=O)C(C)(C)C)OCOC(=O)C(C)(C)C > 10 µM

---

system: EJ-1 cells / γδ T cells; test: TNF-α production from γδ T cells stimulated by compound-pretreated EJ-1 cells (indirect antitumor action, ELISA); type: cell-based; conditions: EJ-1 pretreated 4 hr with compound, 16 hr with γδ T cells, TNF-α ELISA; read-out: TNF-α50
pEC50: −log10 of the molar value.
MEASURED PARAMETER: pEC50

Take a look at these entries with their results.
MOLECULE: CC(C)(C)C(=O)OCOP(=O)(OCOC(=O)C(C)(C)C)C(CNc1ncccc1OCc1ccccc1)P(=O)(OCOC(=O)C(C)(C)C)OCOC(=O)C(C)(C)C [Compound 15]
MEASURED PARAMETER: pEC50
EXPERIMENTAL VALUE: < 5.00
--
MOLECULE: Cc1cc(NCC(P(=O)(OCOC(=O)C(C)(C)C)OCOC(=O)C(C)(C)C)P(=O)(OCOC(=O)C(C)(C)C)OCOC(=O)C(C)(C)C)no1 [Compound 37]
MEASURED PARAMETER: pEC50
EXPERIMENTAL VALUE: < 5.00

Please supply the value of reported pEC50 for the item CC(C)(C)C(=O)OCOP(=O)(OCOC(=O)C(C)(C)C)C(CNc1ccc(-c2ccccc2)cn1)P(=O)(OCOC(=O)C(C)(C)C)OCOC(=O)C(C)(C)C [Compound 19] < 5.00
